Tested on: SUDIPGXVII (diffuse intrinsic pontine glioma line)
Assay: area under dose-response curve of % growth inhibition (log2 RLU vs DMSO / staurosporine), 1e-11 to 1e-4 M (% x log10 M); higher = more growth inhibition
Please mark 1 if the recorded area under dose-response curve is equal to or greater than 100, and 0 if it falls below.

INSERT INTO measurements (compound, target_or_test_system, discrete_label) VALUES
  ('O=C(Nc1c[nH]nc1-c1nc2ccc(CN3CCOCC3)cc2[nH]1)NC1CC1 [AT9283]', 'SUDIPGXVII', 1),
  ('CC(C)[C@H]1C(=O)N[C@@H](CCCNC(=N)N)C(=O)NCC(=O)N[C@@H](CC(=O)O)C(=O)N[C@H](Cc2ccccc2)C(=O)N1C [CILENGITIDE]', 'SUDIPGXVII', 0),
  ('COc1ccc(-c2nc(N3CCOCC3)c3sc(CN(C)c4ncc(C(=O)NO)cn4)cc3n2)cn1 [CUDC-907]', 'SUDIPGXVII', 1),
  ('C=CCNC1=C2C[C@@H](C)C[C@H](OC)[C@H](O)[C@@H](C)/C=C(\C)[C@H](OC(N)=O)[C@@H](OC)/C=C\C=C(/C)C(=O)NC(=CC1=O)C2=O [TANESPIMYCIN]', 'SUDIPGXVII', 0),
  ('O=C(Nc1ccccc1-c1cn2c(CN3CCNCC3)csc2n1)c1cnc2ccccc2n1 [SRT1720]', 'SUDIPGXVII', 0),
  ('O=C(Nc1ccc([N+](=O)[O-])cc1Cl)c1cc(Cl)ccc1O [NICOLSAMIDE]', 'SUDIPGXVII', 1),
  ('CCN(CC)CCNC(=O)c1c(C)[nH]c(/C=C2\C(=O)Nc3ccc(F)cc32)c1C [SUNITINIB]', 'SUDIPGXVII', 1),
  ('C[C@@]12OC(=O)[C@]1([C@@H](O)[C@@H]1C=CCCC1)NC(=O)[C@@H]2CCCl [MARIZOMIB]', 'SUDIPGXVII', 1),
  ('C[C@@H](Oc1cc(-c2cnn(C3CCNCC3)c2)cnc1N)c1c(Cl)ccc(F)c1Cl [CRIZOTINIB]', 'SUDIPGXVII', 0),
  ('CC(=O)c1ccc2c(c1)c1cc(C(C)=O)ccc1n2CCNC(C)C [CBL-0137]', 'SUDIPGXVII', 1),
  ('N=C(N)c1ccc(N=NNc2ccc(C(=N)N)cc2)cc1 [BERENIL]', 'SUDIPGXVII', 0),
  ('CC(C)(C)OC(=O)Nc1ccc(-c2cc(C(=O)NCCCCCCC(=O)NO)no2)cc1 [BML-281]', 'SUDIPGXVII', 0),
  ('CC(C)c1cc(-c2n[nH]c(=O)n2-c2ccc3c(ccn3C)c2)c(O)cc1O [GANETESPIB]', 'SUDIPGXVII', 1),
  ('CC[C@]1(O)C[C@H]2CN(CCc3c([nH]c4ccccc34)[C@@](C(=O)OC)(c3cc4c(cc3OC)N(C=O)[C@H]3[C@@](O)(C(=O)OC)[C@H](OC(C)=O)[C@]5(CC)C=CCN6CC[C@]43[C@@H]65)C2)C1 [VINCRISTINE]', 'SUDIPGXVII', 1),
  ('Cc1[nH]c2ccccc2c1CCNCc1ccc(/C=C/C(=O)NO)cc1 [PANOBINOSTAT]', 'SUDIPGXVII', 1);

* * *

Tested on: DIPGX29 (H3.3 K27M diffuse intrinsic pontine glioma line)
Assay: maximal growth inhibition (yFin) relative to DMSO / staurosporine; higher = more efficacious
Please mark Satisfied if the recorded maximal growth inhibition is equal to or greater than 60%, and Not satisfied if it falls below.

INSERT INTO assay_data (molecule, target_or_test_system, discrete_label) VALUES
  ('CCNc1nc(Nc2cc(F)c(C(=O)N3CCOCC3)cc2OC)ncc1C(F)(F)F [GNE-7915]', 'DIPGX29', 'Not satisfied'),
  ('CN1CCN(CCCN2c3ccccc3Sc3ccc(C(F)(F)F)cc32)CC1 [TRIFLUOPERAZINE]', 'DIPGX29', 'Satisfied'),
  ('O=C(CCCCCCNC(=O)c1cnc(N(c2ccccc2)c2ccccc2)nc1)NO [ROCILINOSTAT]', 'DIPGX29', 'Satisfied'),
  ('CN[C@H]1CC[C@@H](c2ccc(Cl)c(Cl)c2)c2ccccc21 [SERTRALINE]', 'DIPGX29', 'Satisfied'),
  ('COc1cc(OC2CCN(C)CC2)ccc1Nc1ncc2c(n1)n(C1CCCC1)c(=O)n2C [AZ3146]', 'DIPGX29', 'Satisfied'),
  ('CN(C)c1ccc(C(=C2C=CC(=[N+](C)C)C=C2)c2ccc(N(C)C)cc2)cc1 [GENTIAN VIOLET]', 'DIPGX29', 'Satisfied'),
  ('Nc1ccc2ncnc(NCCc3ccc(Oc4ccccc4)cc3)c2c1 [EVP4593]', 'DIPGX29', 'Not satisfied'),
  ('C=C[C@]1(C)C[C@@H](OC(=O)CSC(C)(C)CNC(=O)[C@H](N)C(C)C)[C@]2(C)[C@H](C)CC[C@]3(CCC(=O)[C@H]32)[C@@H](C)[C@@H]1O [VALNEMULIN]', 'DIPGX29', 'Not satisfied'),
  ('COc1cc2c(cc1O)CC[C@@H]1[C@@H]2CC[C@]2(C)[C@@H](O)CC[C@@H]12 [2-METHOXYESTRADIOL]', 'DIPGX29', 'Not satisfied'),
  ('Cc1[nH]c2ccccc2c1CCNCc1ccc(/C=C/C(=O)NO)cc1 [PANOBINOSTAT]', 'DIPGX29', 'Satisfied'),
  ('Clc1ccc(C(Cn2ccnc2)OCc2csc3c(Cl)cccc23)c(Cl)c1 (stereo unspecified) [SERTACONAZOLE]', 'DIPGX29', 'Satisfied'),
  ('CCC(C)(C)c1ccc(CC(C)CN2C[C@@H](C)O[C@@H](C)C2)cc1 (stereo partly specified) [AMOROLFINE]', 'DIPGX29', 'Not satisfied'),
  ('COc1cccc2c1C(=O)c1c(O)c3c(c(O)c1C2=O)C[C@@](O)(C(C)=O)C[C@@H]3O[C@H]1C[C@H](N)[C@H](O)[C@H](C)O1 [DAUNORUBICIN]', 'DIPGX29', 'Satisfied'),
  ('Nc1ncnc2c1ncn2[C@@H]1O[C@H](C[C@@H](N)CC[C@H](N)C(=O)O)[C@@H](O)[C@H]1O [SINEFUNGIN]', 'DIPGX29', 'Not satisfied'),
  ('Fc1ccc(C(c2ccc(F)cc2)N2CCN(C/C=C/c3ccccc3)CC2)cc1 [FLUNARIZINE]', 'DIPGX29', 'Satisfied');

* * *

The reader will find reported maximal growth inhibition values listed item by item below.
Test system: HGGX39 (paediatric high-grade glioma line)
Experiment: maximal growth inhibition (yFin) relative to DMSO / staurosporine; higher = more efficacious
measured-quantity: maximal growth inhibition

INSERT INTO measurements (compound, measured_quantity, endpoint_result) VALUES
  ('COc1ccc(-c2nc(N3CCOCC3)c3sc(CN(C)c4ncc(C(=O)NO)cn4)cc3n2)cn1', 'maximal growth inhibition', '112%'),
  ('COc1cc2c(NC3CCN(C(C)C)CC3)nc(N3CCC(F)(F)CC3)nc2cc1OCCCN1CCCC1', 'maximal growth inhibition', '74.9%'),
  ('O=C(Nc1c[nH]nc1-c1nc2ccc(CN3CCOCC3)cc2[nH]1)NC1CC1', 'maximal growth inhibition', '91.6%'),
  ('CN1[C@@H]2CC[C@H]1C[C@@H](OC(=O)c1cc(Cl)cc(Cl)c1)C2', 'maximal growth inhibition', '81.4%'),
  ('C#CCC(Cc1cnc2nc(N)nc(N)c2n1)c1ccc(C(=O)N[C@@H](CCC(=O)O)C(=O)O)cc1 (stereo partly drawn) [PRALATREXATE]', 'maximal growth inhibition', '25.5%'),
  ('Cc1nc(-c2cccnc2)sc1C(=O)Nc1ccccc1-c1cn2c(CN3CCOCC3)csc2n1', 'maximal growth inhibition', '72.4%'),
  ('N[C@@H](Cc1cc(I)c(Oc2ccc(O)c(I)c2)c(I)c1)C(=O)O', 'maximal growth inhibition', '26.4%'),
  ('COc1cc2c(cc1O)CC[C@@H]1[C@@H]2CC[C@]2(C)[C@@H](O)CC[C@@H]12', 'maximal growth inhibition', '53%');

* * *

The reader will find reported area under dose-response curve values listed item by item below.
Test system: HGGX6 (H3.3 G34R paediatric high-grade glioma line)
Test: area under dose-response curve of % growth inhibition (log2 RLU vs DMSO / staurosporine), 1e-11 to 1e-4 M (% x log10 M); higher = more growth inhibition
measured-quantity: area under dose-response curve

INSERT INTO assay_data (cpd_smiles, target_or_test_system, measured_quantity, endpoint_result) VALUES
  ('C[C@@H]1O[C@@H](O[C@H]2C[C@@H](O)[C@]3(CO)[C@H]4[C@H](O)C[C@]5(C)[C@@H](C6=CC(=O)OC6)CC[C@]5(O)[C@@H]4CC[C@]3(O)C2)[C@H](O)[C@H](O)[C@H]1O', 'HGGX6', 'area under dose-response curve', 173),
  ('CCN(C(=O)CO)[C@H]1CN(/C(=N\C#N)Nc2cccc(OC(F)F)c2)N=C1c1ccc(Cl)c(Cl)c1', 'HGGX6', 'area under dose-response curve', 8.24),
  ('O=c1[nH]c(=O)n([C@H]2C[C@H](O)[C@@H](CO)O2)cc1/C=C/Br', 'HGGX6', 'area under dose-response curve', 2.8),
  ('Cc1cn(CCN2CCN(c3ccccc3-c3cc(C#N)cc(C(=O)NCCCN4CCCC4)c3)CC2)c2ccccc12', 'HGGX6', 'area under dose-response curve', 92.5),
  ('Nc1ccc2ncnc(NCCc3ccc(Oc4ccccc4)cc3)c2c1', 'HGGX6', 'area under dose-response curve', 156),
  ('CC/C(=C(\c1ccccc1)c1ccc(OCCN(C)C)cc1)c1ccccc1', 'HGGX6', 'area under dose-response curve', 12.2),
  ('CO[C@H]1C[C@@H]2CC[C@@H](C)[C@@](O)(O2)C(=O)C(=O)N2CCCC[C@H]2C(=O)O[C@H]([C@H](C)C[C@@H]2CC[C@@H](OCCO)[C@H](OC)C2)CC(=O)[C@H](C)/C=C(\C)[C@@H](O)[C@@H](OC)C(=O)[C@H](C)C[C@H](C)/C=C/C=C/C=C/1C', 'HGGX6', 'area under dose-response curve', 62.9);
